Tested on: DHL9, Increased ribonucleotide reduction
ASSAY METHOD TEXT: Direct comparative cytotoxicity assay (Table II), DHL9 increased ribonucleotide reduction
Format: cell-based, human
CONDITION SUMMARY: Homo sapiens, 120 h, read-out: ID50: concentration that produced 50 percent reduction in all numbers after five days
pIC50: −log10 of the molar value.
PARAMETER: pIC50

INSERT INTO results (smi, tested_system, parameter, recorded_measurement) VALUES
  ('Nc1nc(Cl)nc2c1ncn2[C@H]1C[C@H](O)[C@@H](CO)O1', 'DHL9, Increased ribonucleotide reduction', 'pIC50', 5.40);

###

Test system: normal human monocytes
ASSAY METHOD TEXT: In vitro cytotoxicity toward human monocytes (MTT reduction assay)
Type: cell-based
CONDITION SUMMARY: Homo sapiens, Monocyte, 120 h; five days exposure (FIG. 2); read-out: CdA concentration at which 50 percent of the cultured monocytes were killed
PARAMETER: IC50

INSERT INTO measurements (compound, tested_system, recorded_measurement) VALUES
  ('Nc1nc(Cl)nc2c1ncn2[C@H]1C[C@H](O)[C@@H](CO)O1 [CdA]', 'normal human monocytes', '20 nM');
